Entry source: ChEMBL document CHEMBL1137223

Experiment: Partition coefficient (logP)
Assay type: physicochemical
Conditions: octanol/water
Simple rule here: logP less than 2 is fulfilled, otherwise not fulfilled.

# Molecule, Label
records = [
    ("CCOC(=O)c1cnc2c(c(C)nn2-c2ccccc2)c1Nc1ccc(O)cc1", "fulfilled"),
    ("CCOC(=O)c1cnc2c(c(-c3ccccc3)nn2-c2ccccc2)c1Nc1ccc(O)cc1", "not fulfilled"),
    ("CCOC(=O)c1cnc2c(c(C)nn2C)c1Nc1cccc(OC)c1", "fulfilled"),
    ("CCOC(=O)c1cnc2c(c(C)nn2C)c1Nc1ccc(Cl)cc1", "fulfilled"),
]

###

Test: Partition coefficient (logP)
Format: physicochemical
Details: octanol/water
Simple rule here: logP less than 1 is criterion met, otherwise criterion not met.

# Molecule, Label
records = [
    ("CCOC(=O)c1cnc2c(c(C)nn2C)c1Nc1ccc([N+](=O)[O-])cc1", "criterion met"),
    ("CCOC(=O)c1cnc2c(c(C)nn2C)c1Nc1ccc(OC)cc1", "criterion met"),
    ("CCOC(=O)c1cnc2c(c(C)nn2C)c1Nc1ccc(Br)cc1", "criterion not met"),
    ("CCOC(=O)c1cnc2c(c(C)nn2C)c1Nc1ccc(O)cc1", "criterion not met"),
    ("CCOC(=O)c1cnc2c(c(C)nn2C)c1Nc1ccc(F)cc1", "criterion met"),
    ("CCOC(=O)c1cnc2c(c(C)nn2C)c1Nc1ccc(C)cc1", "criterion not met"),
    ("CCOC(=O)c1cnc2c(c(C)nn2C)c1Nc1ccccc1", "criterion met"),
    ("CCOC(=O)c1cnc2c(c(-c3ccccc3)nn2-c2ccccc2)c1Nc1ccc(O)c(CN(CC)CC)c1", "criterion not met"),
    ("CCOC(=O)c1cnc2c(c(C)nn2C)c1Nc1cccc([N+](=O)[O-])c1", "criterion met"),
    ("CCOC(=O)c1cnc2c(c(C)nn2C)c1Nc1cccc(C)c1", "criterion not met"),
    ("CCOC(=O)c1cnc2c(c(C)nn2C)c1Nc1cccc(Cl)c1", "criterion not met"),
]
